- Test system: HSSY-II complex spheroid growth, percent test/control
- method: Anticancer human tumor HSSY-II cell line growth inhibition [Asc];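 note: spheroids exposed to drug for 7 days before reading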
- test_conditions: second compound 0.316 µM; first compound 0.949 µM; active compounds read low
Measured viability, T/C by item
The response must be a number in % with no trailing unit.

As a guide, the following entries are already answered.
- molecule: "Cc1nc(N2CCC3(CC2)COC(C)C3N)c(CO)nc1Sc1ccnc(N)c1Cl (centres undefined) + CNC(C)C(=O)NC1CN(S(=O)(=O)c2cccc(S(=O)(=O)N3CCC4CCC(C(=O)NC(c5ccccc5)c5ccccc5)N4C(=O)C(NC(=O)C(C)NC)C3)c2)CCC2CCC(C(=O)NC(c3ccccc3)c3ccccc3)N2C1=O"
  viability, T/C / %: 78.7
- molecule: "CCN1C(C(=O)NC23CCC(C(=O)O)(CC2)CC3)C(c2cccc(Cl)c2F)C2(C(=O)Nc3cc(Cl)ccc32)C12CCCCC2 (centres undefined) + CNC(C)C(=O)NC1CN(S(=O)(=O)c2cccc(S(=O)(=O)N3CCC4CCC(C(=O)NC(c5ccccc5)c5ccccc5)N4C(=O)C(NC(=O)C(C)NC)C3)c2)CCC2CCC(C(=O)NC(c3ccccc3)c3ccccc3)N2C1=O"
  viability, T/C / %: 1
- molecule: "CCN1C(C(=O)NC23CCC(C(=O)O)(CC2)CC3)C(c2cccc(Cl)c2F)C2(C(=O)Nc3cc(Cl)ccc32)C12CCCCC2 (centres undefined) + Cc1c(S(C)(=O)=O)c(-c2cc(F)cc(N3CCN(c4ccc(NS(=O)(=O)c5ccc(NC(CCN6CCC(C(=O)OCCCP(=O)(O)O)CC6)CSc6ccccc6)c(S(=O)(=O)C(F)(F)F)c5)cc4)CC3)c2)c(-c2ccc(Cl)cc2)n1C(C)C"
  viability, T/C / %: 3.4

Quick note, viability, T/C for Cc1nc(N2CCC3(CC2)COC(C)C3N)c(CO)nc1Sc1ccnc(N)c1Cl (centres undefined) + Cc1c(S(C)(=O)=O)c(-c2cc(F)cc(N3CCN(c4ccc(NS(=O)(=O)c5ccc(NC(CCN6CCC(C(=O)OCCCP(=O)(O)O)CC6)CSc6ccccc6)c(S(=O)(=O)C(F)(F)F)c5)cc4)CC3)c2)c(-c2ccc(Cl)cc2)n1C(C)C landed at 65.3

* * *

This listing pairs compounds with measured viability, T/C.
- Tested on: HSSY-II complex spheroid growth, percent test/control
- method: Anticancer human tumor HSSY-II cell line growth inhibition [Asc];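 note: spheroids exposed to drug for 7 days before reading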
- test_conditions: second compound 0.1 µM; first compound 0.1 µM; active compounds read low
Quick reminder: number only, in %, skip the unit.

- compound: "O=C(c1cc(Cc2n[nH]c(=O)c3ccccc23)ccc1F)N1CCN(C(=O)C2CC2)CC1 + CNC(C)C(=O)NC1CN(S(=O)(=O)c2cccc(S(=O)(=O)N3CCC4CCC(C(=O)NC(c5ccccc5)c5ccccc5)N4C(=O)C(NC(=O)C(C)NC)C3)c2)CCC2CCC(C(=O)NC(c3ccccc3)c3ccccc3)N2C1=O"
  uom: "%"
  viability, T/C: 81.9
- compound: "C#Cc1c(F)ccc2cc(O)cc(-c3ncc4c(N5CC6CCC(C5)N6)nc(OCC56CCCN5CC(F)C6)nc4c3F)c12 (stereo not drawn) + CNC(C)C(=O)NC1CN(S(=O)(=O)c2cccc(S(=O)(=O)N3CCC4CCC(C(=O)NC(c5ccccc5)c5ccccc5)N4C(=O)C(NC(=O)C(C)NC)C3)c2)CCC2CCC(C(=O)NC(c3ccccc3)c3ccccc3)N2C1=O"
  uom: "%"
  viability, T/C: 91.7
- compound: "CNC(C)C(=O)NC1CN(S(=O)(=O)c2cccc(S(=O)(=O)N3CCC4CCC(C(=O)NC(c5ccccc5)c5ccccc5)N4C(=O)C(NC(=O)C(C)NC)C3)c2)CCC2CCC(C(=O)NC(c3ccccc3)c3ccccc3)N2C1=O (stereo not drawn) + Cc1c(S(C)(=O)=O)c(-c2cc(F)cc(N3CCN(c4ccc(NS(=O)(=O)c5ccc(NC(CCN6CCC(C(=O)OCCCP(=O)(O)O)CC6)CSc6ccccc6)c(S(=O)(=O)C(F)(F)F)c5)cc4)CC3)c2)c(-c2ccc(Cl)cc2)n1C(C)C"
  uom: "%"
  viability, T/C: 90.6
- compound: "CCN1CCN(Cc2ccc(Nc3ncc(F)c(-c4cc(F)c5nc(C)n(C(C)C)c5c4)n3)nc2)CC1 + CNC(C)C(=O)NC1CN(S(=O)(=O)c2cccc(S(=O)(=O)N3CCC4CCC(C(=O)NC(c5ccccc5)c5ccccc5)N4C(=O)C(NC(=O)C(C)NC)C3)c2)CCC2CCC(C(=O)NC(c3ccccc3)c3ccccc3)N2C1=O"
  uom: "%"
  viability, T/C: 51.5
- compound: "NC1CCC(NC2CC2c2ccccc2)CC1 (stereo not drawn) + CNC(C)C(=O)NC1CN(S(=O)(=O)c2cccc(S(=O)(=O)N3CCC4CCC(C(=O)NC(c5ccccc5)c5ccccc5)N4C(=O)C(NC(=O)C(C)NC)C3)c2)CCC2CCC(C(=O)NC(c3ccccc3)c3ccccc3)N2C1=O"
  uom: "%"
  viability, T/C: 49.9

For record O=C(c1ccc(F)c(F)c1Nc1ccc(I)cc1F)N1CC(O)([C@@H]2CCCCN2)C1 + CNC(C)C(=O)NC1CN(S(=O)(=O)c2cccc(S(=O)(=O)N3CCC4CCC(C(=O)NC(c5ccccc5)c5ccccc5)N4C(=O)C(NC(=O)C(C)NC)C3)c2)CCC2CCC(C(=O)NC(c3ccccc3)c3ccccc3)N2C1=O the listed viability, T/C is 99.8

For record C=CC(=O)N1CCN(c2nc(=O)n(-c3c(C)ccnc3C(C)C)c3nc(-c4c(O)cccc4F)c(F)cc23)C(C)C1 (stereo not drawn) + CNC(C)C(=O)NC1CN(S(=O)(=O)c2cccc(S(=O)(=O)N3CCC4CCC(C(=O)NC(c5ccccc5)c5ccccc5)N4C(=O)C(NC(=O)C(C)NC)C3)c2)CCC2CCC(C(=O)NC(c3ccccc3)c3ccccc3)N2C1=O the listed viability, T/C is 91.8

Entry C=C(F)C(=O)N1CCN(c2nc(OCC3CCCN3C)nc3c2CCN(c2cccc4cccc(Cl)c24)C3)CC1CC#N (stereo not drawn) + CNC(C)C(=O)NC1CN(S(=O)(=O)c2cccc(S(=O)(=O)N3CCC4CCC(C(=O)NC(c5ccccc5)c5ccccc5)N4C(=O)C(NC(=O)C(C)NC)C3)c2)CCC2CCC(C(=O)NC(c3ccccc3)c3ccccc3)N2C1=O , viability, T/C reported as 91.2

viability, T/C recorded for this compound, C=C(F)C(=O)N1CCN(c2nc(OCC3CCCN3C)nc3c2CCN(c2cccc4cccc(Cl)c24)C3)CC1CC#N (stereo not drawn) + Cc1c(S(C)(=O)=O)c(-c2cc(F)cc(N3CCN(c4ccc(NS(=O)(=O)c5ccc(NC(CCN6CCC(C(=O)OCCCP(=O)(O)O)CC6)CSc6ccccc6)c(S(=O)(=O)C(F)(F)F)c5)cc4)CC3)c2)c(-c2ccc(Cl)cc2)n1C(C)C , is 106

get_value(item= COc1c(OCCCN2CCOCC2)ccc2c3n(c(=NC(=O)c4cnc(N)nc4)nc12)CCN3 + CNC(C)C(=O)NC1CN(S(=O)(=O)c2cccc(S(=O)(=O)N3CCC4CCC(C(=O)NC(c5ccccc5)c5ccccc5)N4C(=O)C(NC(=O)C(C)NC)C3)c2)CCC2CCC(C(=O)NC(c3ccccc3)c3ccccc3)N2C1=O , readout=viability, T/C) returns 38.8

Form: compound = NC1CCC(NC2CC2c2ccccc2)CC1 (stereo not drawn) + Cc1c(S(C)(=O)=O)c(-c2cc(F)cc(N3CCN(c4ccc(NS(=O)(=O)c5ccc(NC(CCN6CCC(C(=O)OCCCP(=O)(O)O)CC6)CSc6ccccc6)c(S(=O)(=O)C(F)(F)F)c5)cc4)CC3)c2)c(-c2ccc(Cl)cc2)n1C(C)C ; viability, T/C = 66.5

Quick note, viability, T/C for O=C(c1ccc(F)c(F)c1Nc1ccc(I)cc1F)N1CC(O)([C@@H]2CCCCN2)C1 + Cc1c(S(C)(=O)=O)c(-c2cc(F)cc(N3CCN(c4ccc(NS(=O)(=O)c5ccc(NC(CCN6CCC(C(=O)OCCCP(=O)(O)O)CC6)CSc6ccccc6)c(S(=O)(=O)C(F)(F)F)c5)cc4)CC3)c2)c(-c2ccc(Cl)cc2)n1C(C)C landed at 112

The recorded viability, T/C for COc1c(OCCCN2CCOCC2)ccc2c3n(c(=NC(=O)c4cnc(N)nc4)nc12)CCN3 + Cc1c(S(C)(=O)=O)c(-c2cc(F)cc(N3CCN(c4ccc(NS(=O)(=O)c5ccc(NC(CCN6CCC(C(=O)OCCCP(=O)(O)O)CC6)CSc6ccccc6)c(S(=O)(=O)C(F)(F)F)c5)cc4)CC3)c2)c(-c2ccc(Cl)cc2)n1C(C)C is 35.9
